- assay.summary: in vivo
- study.conditions: Balb/C nu/nu, mouse, plasma, 30 mg/kg
parameter.measured: concentration at 0.25 h (µM)
Give just the number in µM; leave the unit off.

Lookup: Give the measured concentration at 0.25 h of `COc1cc(Cc2cnc(N)nc2N)cc(OC)c1OC` .
Found: 19.6

----------
- assay.summary: in vivo
- study.conditions: Balb/C nu/nu, mouse, plasma, 300 mg/kg
parameter.measured: concentration at 0.5 h (µM)
Give just the number in µM; leave the unit off.

Lookup: Give the measured concentration at 0.5 h of COc1cc(Cc2cnc(N)nc2N)cc(OC)c1OC [TMP, Trimethoprim] .
Found: 128

----------
- assay.summary: in vivo
- study.conditions: Balb/C nu/nu, mouse, plasma, 300 mg/kg
parameter.measured: concentration at 0.25 h
Please answer in the form of a number followed by its unit of measurement.

Lookup: Give the measured concentration at 0.25 h of `COc1cc(Cc2cnc(N)nc2N)cc(OC)c1OC` .
Found: 137 µM

----------
- assay.summary: in vivo
- study.conditions: Balb/C nu/nu, mouse, plasma, 300 mg/kg
parameter.measured: concentration at 8 h (nM)
Give just the number in nM; leave the unit off.

Lookup: Give the measured concentration at 8 h of `COc1cc(Cc2cnc(N)nc2N)cc(OC)c1OC` .
Found: 300

----------
- assay.summary: in vivo
- study.conditions: Balb/C nu/nu, mouse, plasma, 100 mg/kg
parameter.measured: concentration at 1 h (µM)
Give just the number in µM; leave the unit off.

Lookup: Give the measured concentration at 1 h of COc1cc(Cc2cnc(N)nc2N)cc(OC)c1OC [TMP, Trimethoprim] .
Found: 27.6

----------
- assay.summary: in vivo
- study.conditions: Balb/C nu/nu, mouse, plasma, 100 mg/kg
parameter.measured: concentration at 0.25 h (µM)
Give just the number in µM; leave the unit off.

Lookup: Give the measured concentration at 0.25 h of `COc1cc(Cc2cnc(N)nc2N)cc(OC)c1OC` .
Found: 78.1

----------
- assay.summary: in vivo
- study.conditions: Balb/C nu/nu, mouse, plasma, 300 mg/kg
parameter.measured: concentration at 0.083 h (µM)
Give just the number in µM; leave the unit off.

Lookup: Give the measured concentration at 0.083 h of COc1cc(Cc2cnc(N)nc2N)cc(OC)c1OC [TMP, Trimethoprim] .
Found: 117

----------
- assay.summary: in vivo
- study.conditions: Balb/C nu/nu, mouse, plasma, 100 mg/kg
parameter.measured: concentration at 2 h
Please answer in the form of a number followed by its unit of measurement.

Lookup: Give the measured concentration at 2 h of `COc1cc(Cc2cnc(N)nc2N)cc(OC)c1OC` .
Found: 2970 nM

----------
- assay.summary: in vivo
- study.conditions: Balb/C nu/nu, mouse, plasma, 30 mg/kg
parameter.measured: concentration at 1 h (nM)
Give just the number in nM; leave the unit off.

Lookup: Give the measured concentration at 1 h of `COc1cc(Cc2cnc(N)nc2N)cc(OC)c1OC` .
Found: 2550

----------
- assay.summary: in vivo
- study.conditions: Balb/C nu/nu, mouse, plasma, 100 mg/kg
parameter.measured: concentration at 0.5 h (µM)
Give just the number in µM; leave the unit off.

Lookup: Give the measured concentration at 0.5 h of `COc1cc(Cc2cnc(N)nc2N)cc(OC)c1OC` .
Found: 58.8
